target: CLK1 (Mus musculus); test: Inhibition of CLK1 (unknown origin)
pIC50: −log10 of the molar value.
Recorded metric: pIC50

| Smiles string | Recorded metric | Reported value |
| --- | --- | --- |
| NC(=O)c1cc(-c2cn3ccccc3n2)ccc1O | pIC50 | 6.00 |
| NC(=O)c1cc(-c2cn3cc(Br)ccc3n2)ccc1O | pIC50 | 6.15 |

* * *

Examples of compounds with documented pIC50 follow.
biological target: CLK1 (Mus musculus); test: Inhibition of CLK1 (unknown origin)
pIC50: −log10 of the molar value.

| Smiles string | pIC50 |
| --- | --- |
| NC(=O)c1cc(-c2cn3cc(N)ccc3n2)ccc1O | < 5.00 |
| NC(=O)c1cc(-c2cn3cc(F)ccc3n2)ccc1O | 5.85 |
| COc1cccc(-c2cn3cc(Cl)ccc3n2)c1 | < 5.00 |
| NC(=O)c1cc(-c2cn3cc(-c4ccc([N+](=O)[O-])cc4)ccc3n2)ccc1O | < 5.00 |
| COc1cc(OC)cc(-c2cn3cc(Cl)ccc3n2)c1 | < 5.00 |

Shift focus to the following entry.
Return reported pIC50; argument: `Oc1ccc(-c2cn3cc(Cl)ccc3n2)cc1`
< 5.00

All values here come from ChEMBL document CHEMBL3870305.
